# test target: MC5R (Homo sapiens)
# Sequence (P33032 whole entry): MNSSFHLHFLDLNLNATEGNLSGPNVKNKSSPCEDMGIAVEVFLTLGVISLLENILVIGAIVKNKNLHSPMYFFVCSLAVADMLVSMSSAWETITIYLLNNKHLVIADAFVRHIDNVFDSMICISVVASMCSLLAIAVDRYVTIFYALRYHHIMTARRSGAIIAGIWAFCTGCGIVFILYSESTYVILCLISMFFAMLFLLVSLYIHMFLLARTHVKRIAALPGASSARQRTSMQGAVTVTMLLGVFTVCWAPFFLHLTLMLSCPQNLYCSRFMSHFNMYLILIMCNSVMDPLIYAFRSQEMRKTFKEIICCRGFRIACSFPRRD
# test name: cAMP assay (β-galactosidase reporter, cAMP Hunter), MC5R
# Format: cell-based
# condition: EC50(MC5R)/EC50(MC4R)
Bridge positions count the residues as written; N and C are the ends. Square brackets hold non-standard residues; d marks the D form. Peptide text beside a SMILES is read from it. hCys = N[C@@H](CCS)C(=O)O
property: Ratios of EC50 values MC 5/4
Lab note: record just the number, no unit beside it.

compound	test target	property	recorded measurement
CC(=O)N[C@@H](CCCNC(=N)N)C(=O)N[C@H]1CCSSC[C@@H](C(N)=O)NC(=O)[C@H](Cc2c[nH]c3ccccc23)NC(=O)[C@H](CCCNC(=N)N)NC(=O)[C@@H](Cc2ccccc2)NC(=O)[C@H](C)NC1=O [Compound 15] (Ac-R[hCys]A[dF]RWC-NH2; disulfide 2-7)	MC5R (Homo sapiens)	Ratios of EC50 values MC 5/4	161

Input: So what does the record say about Ratios of EC50 values MC 5/4 for CC(=O)N[C@@H](CCCNC(=N)N)C(=O)N[C@H]1CSSC[C@@H](C(N)=O)NC(=O)[C@H](Cc2c[nH]c3ccccc23)NC(=O)[C@H](CCCNC(=N)N)NC(=O)[C@@H](Cc2ccccc2)NC(=O)[C@H](Cc2cn(C)cn2)NC(=O)[C@@H](C)NC1=O [Compound 6] ?
Output: 662

----------
# test target: MC4R (Homo sapiens, UniProt P32245)
# Sequence (P32245 whole entry): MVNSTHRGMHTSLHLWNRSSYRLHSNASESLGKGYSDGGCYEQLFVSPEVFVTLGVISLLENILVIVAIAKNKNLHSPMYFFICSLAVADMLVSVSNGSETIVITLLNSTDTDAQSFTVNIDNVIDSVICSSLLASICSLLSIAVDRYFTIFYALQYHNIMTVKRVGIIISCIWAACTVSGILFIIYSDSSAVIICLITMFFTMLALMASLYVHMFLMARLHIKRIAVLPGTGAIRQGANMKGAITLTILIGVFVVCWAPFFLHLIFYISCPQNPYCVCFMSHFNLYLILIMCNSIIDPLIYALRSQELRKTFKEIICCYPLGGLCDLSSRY
# test name: cAMP assay (β-galactosidase reporter, cAMP Hunter), MC4R
# Type: cell-based
# condition: agonist cAMP stimulation; read-out: cAMP Assay (EC-50) MC4R
Bridge positions count the residues as written; N and C are the ends. Square brackets hold non-standard residues; d marks the D form. Peptide text beside a SMILES is read from it. hCys = N[C@@H](CCS)C(=O)O
property: pEC50
Scale: negative log10 of molar concentration, which is what pEC50 denotes.

Illustrative cases are given below, each with its answer.
compound	pEC50
CC(=O)N[C@@H](CCCNC(=N)N)C(=O)N[C@H]1CSSC[C@@H](C(N)=O)NC(=O)[C@H](Cc2c[nH]c3ccccc23)NC(=O)[C@H](CCCNC(=N)N)NC(=O)[C@@H](Cc2ccccc2)NC(=O)[C@H](Cc2c[nH]cn2)NC(=O)[C@@H](C(C)C)NC1=O [Compound 4]	8.87
CC(=O)N[C@@H](CCCNC(=N)N)C(=O)N[C@H]1CCSSC[C@@H](C(N)=O)NC(=O)[C@H](Cc2c[nH]c3ccccc23)NC(=O)[C@H](CCCNC(=N)N)NC(=O)[C@@H](Cc2ccccc2)NC(=O)[C@@H](C)NC1=O [Compound 16] (Ac-R[hCys][dA][dF]RWC-NH2; disulfide 2-7)	8.12

Shifting focus to the compound that follows.
Input: Please give the measured pEC50 for this compound: CC(=O)N[C@@H](CCCNC(=N)N)C(=O)N[C@H]1CSSC[C@@H](C(N)=O)NC(=O)[C@H](Cc2c[nH]c3ccccc23)NC(=O)[C@H](CCCNC(=N)N)NC(=O)[C@@H](Cc2ccccc2)NC(=O)[C@H](CCCNC(=N)N)NC(=O)[C@@H](C)NC1=O [Compound 10] (Ac-RC[dA]R[dF]RWC-NH2; disulfide 2-8)
Output: 8.57

----------
# test target: MC3R (Homo sapiens)
# Sequence (P41968 whole entry): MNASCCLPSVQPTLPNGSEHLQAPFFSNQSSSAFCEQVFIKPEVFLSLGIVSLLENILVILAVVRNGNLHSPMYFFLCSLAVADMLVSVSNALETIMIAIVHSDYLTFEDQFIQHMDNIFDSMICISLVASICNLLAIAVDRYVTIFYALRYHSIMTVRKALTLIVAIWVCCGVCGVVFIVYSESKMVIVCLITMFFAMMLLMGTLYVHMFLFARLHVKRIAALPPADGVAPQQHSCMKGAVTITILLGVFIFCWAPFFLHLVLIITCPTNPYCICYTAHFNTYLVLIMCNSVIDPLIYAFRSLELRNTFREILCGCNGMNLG
# test name: cAMP assay (β-galactosidase reporter, cAMP Hunter), MC3R
# Format: cell-based
# condition: agonist cAMP stimulation; read-out: cAMP Assay (EC-50) MC3R
Bridge positions count the residues as written; N and C are the ends. Square brackets hold non-standard residues; d marks the D form. Peptide text beside a SMILES is read from it. Pen = CC(C)(S)[C@H](N)C(=O)O; hCys = N[C@@H](CCS)C(=O)O
property: pEC50
// field semantics: pEC50 = negative decimal log of concentration (mol/L)

Some molecules with known pEC50 results, for comparison:
molecule	test target	pEC50
CC(=O)N[C@@H](CCCNC(=N)N)C(=O)N[C@H]1CSSC[C@@H](C(N)=O)NC(=O)[C@H](Cc2c[nH]c3ccccc23)NC(=O)[C@H](CCCNC(=N)N)NC(=O)[C@@H](Cc2ccccc2)NC(=O)[C@H](Cc2c[nH]cn2)NC(=O)[C@@H](C(C)(C)C)NC1=O	MC3R (Homo sapiens)	9.15
CC[C@@H](C)[C@H]1NC(=O)[C@@H](NC(=O)[C@H](CCCNC(=N)N)NC(C)=O)CSSC[C@@H](C(N)=O)NC(=O)[C@H](Cc2c[nH]c3ccccc23)NC(=O)[C@H](CCCNC(=N)N)NC(=O)[C@@H](Cc2ccccc2)NC(=O)[C@H](Cc2c[nH]cn2)NC1=O	MC3R (Homo sapiens)	9.02
CC(=O)N[C@@H](CCCNC(=N)N)C(=O)N[C@H]1CCSSC(C)(C)[C@@H](C(N)=O)NC(=O)[C@H](Cc2c[nH]c3ccccc23)NC(=O)[C@H](CCCNC(=N)N)NC(=O)[C@@H](Cc2ccccc2)NC(=O)[C@@H](C)NC1=O [Compound 17] (Ac-R[hCys][dA][dF]RW[Pen]-NH2; disulfide 2-7)	MC3R (Homo sapiens)	6.63

Alright, here's another molecule for you.
Input: Quick one: pEC50 for CC(=O)N[C@@H](CCCNC(=N)N)C(=O)N[C@H]1CCSSC[C@@H](C(N)=O)NC(=O)[C@H](Cc2c[nH]c3ccccc23)NC(=O)[C@H](CCCNC(=N)N)NC(=O)[C@@H](Cc2ccccc2)NC(=O)[C@@H](C)NC1=O [Compound 16] (Ac-R[hCys][dA][dF]RWC-NH2; disulfide 2-7) ?
Output: 5.50
